- System Name: T1, MHC class I allele A*0201 (bound via biotin to streptavidin-coated plate)
- T1 construct: iTopia MHC class I monomer on the plate; placeholder peptide and b2M removed, then reconstituted with test peptide and fresh b2M; also called A2; HLA A2
- Protocol Summary: iTopia peptide binding assay
- Method: The 9 mers were tested for Peptide Binding, Off Rate and Affinity using iTopia Epitope Discovery System in accordance with the manufacturer's instructions. Briefly, 96 well microtitre plates coated with MHC molecules representing different MHC alleles are used to identify candidate peptides. […] Determinations are performed in duplicate using an ELISA plate reader and included allele specific positive controls. […]
Measured Quantity: % of positive control peptide binding (%)

                                      binder                      measured_quantity  observed_measurement
 0  LPSLRQLDL (also called Peptide No 71) [5T4 9 mer peptide 71 LPSLRQLDL]  % of positive control peptide binding                    27
 1  RRPPLAELA (also called Peptide No 57) [5T4 9 mer peptide 57 RRPPLAELA]  % of positive control peptide binding                    11
 2  ECSEAARTV (also called Peptide No 34) [5T4 9 mer peptide 34 ECSEAARTV]  % of positive control peptide binding                     4
 3  ERQNRSFEG (also called Peptide No 95) [5T4 9 mer peptide 95 ERQNRSFEG]  % of positive control peptide binding                     1
 4  SPTSSASSF (also called Peptide No 17) [5T4 9 mer peptide 17 SPTSSASSF]  % of positive control peptide binding                     4
 5  PPLAELAAL (also called Peptide No 58) [5T4 9 mer peptide 58 PPLAELAAL]  % of positive control peptide binding                    19
 6  AGRALQGLR (also called Peptide No 103) [5T4 9 mer peptide 103 AGRALQGLR]  % of positive control peptide binding                     2
 7  SGSNASVSA (also called Peptide No 82) [5T4 9 mer peptide 82 SGSNASVSA]  % of positive control peptide binding                    15
 8  LCECSEAAR (also called Peptide No 33) [5T4 9 mer peptide 33 LCECSEAAR]  % of positive control peptide binding                     6
 9  HNPLADLSP (also called Peptide No 76) [5T4 9 mer peptide 76 HNPLADLSP]  % of positive control peptide binding                     7
10  LPSLRHLDL (also called Peptide No 117) [5T4 9 mer peptide 117 LPSLRHLDL]  % of positive control peptide binding                    16
11  AFEHLPSLR (also called Peptide No 69) [5T4 9 mer peptide 69 AFEHLPSLR]  % of positive control peptide binding                    11
12  QPPLPDQCP (also called Peptide No 28) [5T4 9 mer peptide 28 QPPLPDQCP]  % of positive control peptide binding                     5
13  LASNHFLYL [5T4 9 mer peptide 109 LASNHFLYL]  % of positive control peptide binding                    78
14  GAFARRPPL (also called Peptide No 55) [5T4 9 mer peptide 55 GAFARRPPL]  % of positive control peptide binding                    41
15  NRNLTEVPT (also called Peptide No 40) [5T4 9 mer peptide 40 NRNLTEVPT]  % of positive control peptide binding                     6
